Value source: patent US7776823B2

- System: wild-type S. aureus (clinical isolate)
- test-name: Radial diffusion assay against wild-type S. aureus
- Type: cell-based, Staphylococcus aureus
- assay-setup: radial diffusion assay
Ends that are not written are not given here.
Items are presented alongside their recorded Radial Diffusion Assay minimal inhibitory concentration (MIC), S. aureus (wt).
value-type: Radial Diffusion Assay minimal inhibitory concentration (MIC), S. aureus (wt)

sequence	assay-result
KRIVQRIKDFLRNLVPRTES (listed as Homo sapiens) [KR-20, 20 amino acid cathelicidin derivative]	>64 μm
SSLLEKGLDGAKKAVGGLGKLGKDAVEDLESVGKGAVHDVKDVLDSV (listed as Homo sapiens) [DCD, dermcidin antimicrobial peptide of human sweat, reference compound]	>64 μm
RKSKEKIGKEFKRIVQRIKDFLRNLVPRTES (listed as Homo sapiens) [RK-31, cathelicidin peptide generated from LL-37]	16 μm
KSKEKIGKEFKRIVQRIKDFLRNLVPRTES [KS-30]	16 μm

###

- Tested on: Group A Streptococcus (NZ131)
- Format: cell-based
Ends that are not written are not given here.
Items are presented alongside their recorded Liquid Assay minimal concentration required to kill GAS (NZ131).
value-type: Liquid Assay minimal concentration required to kill GAS (NZ131) (μm)

sequence	assay-system	reading-unit	qual	assay-result
KRIVQRIKDFLRNLVPRTES (listed as Homo sapiens) [KR-20, 20 amino acid cathelicidin derivative]	Group A Streptococcus (NZ131)	μm	=	4
KSKEKIGKEFKRIVQRIKDFLRNLVPRTES [KS-30]	Group A Streptococcus (NZ131)	μm	=	4
SSLLEKGLDGAKKAVGGLGKLGKDAVEDLESVGKGAVHDVKDVLDSV (listed as Homo sapiens) [DCD, dermcidin antimicrobial peptide of human sweat, reference compound]	Group A Streptococcus (NZ131)	μm	>	64
RKSKEKIGKEFKRIVQRIKDFLRNLVPRTES (listed as Homo sapiens) [RK-31, cathelicidin peptide generated from LL-37]	Group A Streptococcus (NZ131)	μm	=	8

###

Items are presented alongside their recorded Radial Diffusion Assay minimal inhibitory concentration (MIC), S. aurus MprF.
- Tested on: Staphylococcus aureus mprF
- test-name: Radial diffusion assay against S. aureus mprF
- Type: cell-based
Ends that are not written are not given here.
value-type: Radial Diffusion Assay minimal inhibitory concentration (MIC), S. aurus MprF

sequence	assay-result
SSLLEKGLDGAKKAVGGLGKLGKDAVEDLESVGKGAVHDVKDVLDSV (listed as Homo sapiens) [DCD, dermcidin antimicrobial peptide of human sweat, reference compound]	>64 μm
RKSKEKIGKEFKRIVQRIKDFLRNLVPRTES (listed as Homo sapiens) [RK-31, cathelicidin peptide generated from LL-37]	8 μm
KSKEKIGKEFKRIVQRIKDFLRNLVPRTES [KS-30]	8 μm
KRIVQRIKDFLRNLVPRTES (listed as Homo sapiens) [KR-20, 20 amino acid cathelicidin derivative]	16 μm
